// provenance: patent US20170136008A1

Tested on: PEO4 ovarian cancer cell line
Assay: MTT cytotoxicity assay, PEO4
Format: cell-based, human
Conditions: PEO4; MTT; read-out: IC50, viability of ovarian cancer cell line
observed property: pIC50
Remember, pIC50 is on a log scale: it is -log10 of the molar concentration.

Query: Give its pIC50 value. Item: N.N.[Cl][Pt][Cl] [Cisplatin, cis-[PtCl2(NH3)2], reference compound]
Result: 5.37

###

Test system: SKOV-3 ovarian cancer cells
Assay: MTT cytotoxicity assay, SKOV-3
Format: cell-based, human
Settings: SK-OV3; MTT; read-out: IC50, viability of ovarian cancer cell line
observed property: pIC50
Please note pIC50 is a logarithmic value: minus log10 of concentration in mol/L. Answer with that number alone.

Query: Consider the compound N.N.[Cl][Pt][Cl] [Cisplatin, cis-[PtCl2(NH3)2], reference compound] and give its measured pIC50.
Result: 5.12
